target or test system: serotonin 2 receptor (Rattus norvegicus, UniProt P14842)
Sequence (P14842 whole entry): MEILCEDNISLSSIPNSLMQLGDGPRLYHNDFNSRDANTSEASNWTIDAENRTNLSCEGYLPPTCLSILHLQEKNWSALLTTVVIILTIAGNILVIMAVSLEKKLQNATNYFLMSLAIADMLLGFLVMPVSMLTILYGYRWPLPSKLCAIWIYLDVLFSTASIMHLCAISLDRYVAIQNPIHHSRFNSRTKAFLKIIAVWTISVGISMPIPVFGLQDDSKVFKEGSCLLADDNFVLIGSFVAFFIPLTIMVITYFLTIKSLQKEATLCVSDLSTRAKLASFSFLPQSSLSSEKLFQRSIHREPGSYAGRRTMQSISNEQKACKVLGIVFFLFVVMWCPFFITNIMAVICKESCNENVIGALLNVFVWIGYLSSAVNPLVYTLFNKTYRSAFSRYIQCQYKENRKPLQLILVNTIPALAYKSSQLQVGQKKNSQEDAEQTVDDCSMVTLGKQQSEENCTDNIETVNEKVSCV
procedure details: Binding test on [3H] ketanserin (serotonin 2 receptor)
study conditions: [3H] ketanserin 0.3 nM, receptor fraction of rat cerebral cortex; read-out: 5HT2
pKi: −log10 of the molar value. Structures can show the parent of a compound that is named as a salt.
parameter: pKi

| molecule | qualifier | assay result |
| --- | --- | --- |
| CCN1CC[C@H](N2CCc3ccccc32)[C@@H](COCc2ccc(F)cc2)C1 (relative stereo) | = | 7.25 |
| CCN1CCC(N2CC(Cc3ccc(OC)cc3)c3ccccc32)CC1 (stereo not drawn) | = | 8.64 |
| NC(=O)Cc1ccc2ccn(C3CCN(CCc4ccc(F)cc4)CC3)c2c1 | = | 8.48 |
| N#CCNC(=O)Cc1ccc2ccn(C3CCN(CCc4ccc(F)cc4)CC3)c2c1 [Example 308, Oxalate] | = | 8.42 |
| Fc1ccc(CCN2CCC(N3CCc4ccc(-c5ccccn5)cc43)CC2)cc1 | = | 6.75 |
| O=C(c1ccc2c(c1)N(C1CCN(CCc3ccc(F)cc3)CC1)CC2)c1nccs1 | < | 6.70 |
| NC(=O)c1ccc2ccn(C3CCN(CCc4ccc(F)cc4)CC3)c2c1 | < | 7.70 |
| O=C(CCCO)NCc1ccc2ccn(C3CCN(CCc4ccc(F)cc4)CC3)c2c1 | = | 8.62 |
| O=C(Cc1ccc2ccn(C3CCN(CCc4ccc(F)cc4)CC3)c2c1)NC(CO)CO.O=C(O)C(=O)O [Example 304, Oxalate] | = | 8.20 |
| NC(=O)NCc1ccc2c(c1)N(C1CCN(CCc3ccc(F)cc3)CC1)CC2 | = | 9.37 |
| OCCc1ccc(OCCCN2CCC(N3CCc4ccccc43)CC2)cc1 | = | 7.55 |
| Fc1ccc(CCN2CCC(CCN3CCc4ccccc43)CC2)cc1 | = | 7.79 |
| CC(O)(c1ccc2c(c1)N(C1CCN(CCc3ccc(F)cc3)CC1)CC2)c1ccccn1 (stereo not drawn) | = | 8.02 |
| NC(=O)c1ccc2c(c1)N(C1CCN(CCc3ccc(F)cc3)CC1)CC2 | = | 8.32 |
| c1ccc2c(c1)CCN2C1CCN(CC2COc3ccccc3O2)CC1 (stereo not drawn) | = | 7.86 |
| Nc1ccc2c(c1)N(C1CCN(CCc3ccc(F)cc3)CC1)CC2 | = | 7.80 |
| O=C(Cc1ccc2c(c1)N(C1CCN(CCc3ccc(F)cc3)CC1)CC2)N1CCCC1 | = | 8.88 |
| CCN1CCC(N2CC(Cc3cccnc3)c3ccccc32)CC1 (stereo not drawn) | = | 7.95 |

###

target or test system: α1 adrenalin receptor
procedure details: Binding test on [3H] prazosin (α1 adrenalin receptor)
Design: species or system rat
study conditions: [3H] prazosin about 0.2 nM, receptor fraction of rat cerebral cortex
pKi: −log10 of the molar value. Structures can show the parent of a compound that is named as a salt.
Form field: pKi (one value per entry).

| compound | pKi |
| --- | --- |
| CCCC(=O)NCc1ccc2ccn(C3CCN(CCc4ccc(F)cc4)CC3)c2c1 [Example 362] | 6.84 |
| CCC(O)c1ccc2ccn(C3CCN(CCc4ccc(F)cc4)CC3)c2c1 (centres unmarked) [Example 319] | 7.37 |
| N#CCNC(=O)Cc1ccc2ccn(C3CCN(CCc4ccc(F)cc4)CC3)c2c1 [Example 308, Oxalate] | 7.23 |
| CNC(=O)Cc1ccc2ccn(C3CCN(CCc4ccc(F)cc4)CC3)c2c1 [Example 316] | 7.20 |
| Fc1ccc(CCCN2CCC(N3CCc4ccccc43)CC2)cc1 [Example 13] | 6.73 |
| O=C(CCCl)NCc1ccc2ccn(C3CCN(CCc4ccc(F)cc4)CC3)c2c1 [Example 367] | 7.34 |
| COc1ccc(Cc2ccc3c(c2)N(C2CCN(CCc4ccc(F)cc4)CC2)CC3)cn1 [Example 189] | 6.35 |
| COc1ccc(C(=O)c2ccc3ccn(C4CCN(CCc5ccc(F)cc5)CC4)c3c2)cn1 [Example 317, Oxalate] | 6.40 |

###

target or test system: serotonin 1A receptor (Rattus norvegicus, UniProt P19327)
Sequence (P19327 1-422): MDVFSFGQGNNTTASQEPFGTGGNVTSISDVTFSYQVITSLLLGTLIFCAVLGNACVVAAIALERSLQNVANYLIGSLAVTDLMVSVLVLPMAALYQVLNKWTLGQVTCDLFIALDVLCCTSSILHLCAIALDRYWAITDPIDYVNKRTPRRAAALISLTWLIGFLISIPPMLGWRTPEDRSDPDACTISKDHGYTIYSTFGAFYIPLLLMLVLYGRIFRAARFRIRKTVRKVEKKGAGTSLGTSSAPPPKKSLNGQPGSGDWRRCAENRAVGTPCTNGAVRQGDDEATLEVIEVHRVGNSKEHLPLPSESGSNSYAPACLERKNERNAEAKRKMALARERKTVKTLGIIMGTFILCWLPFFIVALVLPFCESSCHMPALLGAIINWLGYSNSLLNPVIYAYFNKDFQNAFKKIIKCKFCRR
parameter: Ki (nM)

| molecule | assay result |
| --- | --- |
| O=Cc1ccc2ccn(C3CCN(CCc4ccccc4F)CC3)c2c1 [Example 390] | 0.99 |
| CCCC(=O)NCc1ccc2c(c1)N(C1CCN(CCc3ccc(F)cc3)CC1)CC2 [Example 157] | 4.11 |
| CCN1CCC(N2CCc3ccc(NS(=O)(=O)c4ccc(F)cc4)cc32)CC1 [Example 238] | 86.6 |
| COc1ccc2c(c1)N(C1CCN(CCc3ccc(F)cc3)CC1)CC2 [Example 106] | 0.7 |
| O=C(Cc1ccc2ccn(C3CCN(CCc4ccc(F)cc4)CC3)c2c1)NCCO [Example 300] | 1.73 |
| OCCOc1cccc(CCN2CCC(N3CCc4ccccc43)CC2)c1 [Example 43] | 4.2 |
| Cn1cccc1-c1ccc2c(c1)N(C1CCN(CCc3ccc(F)cc3)CC1)CC2 [Example 173] | 0.06 |
| O=C(CN1CCCCC1)NCc1ccc2ccn(C3CCN(CCc4ccc(F)cc4)CC3)c2c1 [Example 376] | 0.91 |
| COc1ccc(CC2CN(C3CCN(CCc4ccc(F)cc4)CC3)c3ccccc32)cc1 (stereo not drawn) [Example 215] | 126 |

###

Form field: pKi (one value per entry).
target or test system: serotonin 2 receptor (Rattus norvegicus, UniProt P14842)
procedure details: Binding test on [3H] ketanserin (serotonin 2 receptor)
study conditions: [3H] ketanserin 0.3 nM, receptor fraction of rat cerebral cortex; read-out: 5HT2
pKi: −log10 of the molar value. Where a name gives a salt, the structure may show the parent alone.

| molecule | target or test system | pKi |
| --- | --- | --- |
| O=C1CCCN1Cc1ccc2c(c1)N(C1CCN(CCc3ccc(F)cc3)CC1)CC2 | serotonin 2 receptor (Rattus norvegicus, UniProt P14842) | 8.29 |
| Fc1ccc(CCN2CCC(N3CCc4ccc(Cc5cccnc5)cc43)CC2)cc1 | serotonin 2 receptor (Rattus norvegicus, UniProt P14842) | 9.04 |
| CC(=O)NCc1ccc2ccn(C3CCN(CCc4ccc(F)cc4)CC3)c2c1 | serotonin 2 receptor (Rattus norvegicus, UniProt P14842) | 8.86 |
| COc1cccc(CCN2CCC(N3CCc4ccccc43)CC2)c1 | serotonin 2 receptor (Rattus norvegicus, UniProt P14842) | 8.15 |
| COc1cc2c(cc1Cl)CCN2C1CCN(CCc2ccc(F)cc2)CC1 | serotonin 2 receptor (Rattus norvegicus, UniProt P14842) | 7.51 |
| Fc1ccc(CCN2CCC(C3CCc4cccnc43)CC2)cc1 (stereo not drawn) | serotonin 2 receptor (Rattus norvegicus, UniProt P14842) | 9.21 |
| Fc1ccc(CCN2CCC(C3CCc4ccccc43)CC2)cc1 (stereo not drawn) | serotonin 2 receptor (Rattus norvegicus, UniProt P14842) | 8.17 |
| Fc1ccc(CCN2CCN(C3CCCc4cnccc43)CC2)cc1 (stereo not drawn) [Example 283, Hydrochloride] | serotonin 2 receptor (Rattus norvegicus, UniProt P14842) | 7.39 |
| OCc1ccc(CCN2CCC(N3CCc4ccccc43)CC2)cc1CO | serotonin 2 receptor (Rattus norvegicus, UniProt P14842) | 8.19 |

###

target or test system: serotonin 2 receptor (Rattus norvegicus)
procedure details: Binding test on [3H] ketanserin (serotonin 2 receptor)
study conditions: [3H] ketanserin 0.3 nM, receptor fraction of rat cerebral cortex; read-out: 5HT2
pKi: −log10 of the molar value.
Form field: pKi (one value per entry).
parameter: pKi

| entry smiles | target or test system | parameter | qualifier | assay result |
| --- | --- | --- | --- | --- |
| O=Cc1ccc2ccn(C3CCN(CCc4ccccc4F)CC3)c2c1 | serotonin 2 receptor (Rattus norvegicus) | pKi | = | 7.94 |
| CC(C)NC(=O)Cc1ccc2c(c1)N(C1CCN(CCc3ccc(F)cc3)CC1)CC2 | serotonin 2 receptor (Rattus norvegicus) | pKi | = | 9.24 |
| CC(=O)Nc1ccc2ccn(C3CCN(CCc4ccc(F)cc4)CC3)c2c1 | serotonin 2 receptor (Rattus norvegicus) | pKi | < | 7.70 |
| COCCNC(=O)Cc1ccc2ccn(C3CCN(CCc4ccc(F)cc4)CC3)c2c1 | serotonin 2 receptor (Rattus norvegicus) | pKi | = | 8.99 |
| O=C(O)Cc1ccc2c(c1)N(C1CCN(CCc3ccc(F)cc3)CC1)CC2 | serotonin 2 receptor (Rattus norvegicus) | pKi | < | 6.70 |
